So I've got a bunch of compounds here, and I need their inhibition at 10 µM values.
assayed_system: human ME3 enzyme (Homo sapiens, UniProt Q16798)
Sequence (Q16798 1-604): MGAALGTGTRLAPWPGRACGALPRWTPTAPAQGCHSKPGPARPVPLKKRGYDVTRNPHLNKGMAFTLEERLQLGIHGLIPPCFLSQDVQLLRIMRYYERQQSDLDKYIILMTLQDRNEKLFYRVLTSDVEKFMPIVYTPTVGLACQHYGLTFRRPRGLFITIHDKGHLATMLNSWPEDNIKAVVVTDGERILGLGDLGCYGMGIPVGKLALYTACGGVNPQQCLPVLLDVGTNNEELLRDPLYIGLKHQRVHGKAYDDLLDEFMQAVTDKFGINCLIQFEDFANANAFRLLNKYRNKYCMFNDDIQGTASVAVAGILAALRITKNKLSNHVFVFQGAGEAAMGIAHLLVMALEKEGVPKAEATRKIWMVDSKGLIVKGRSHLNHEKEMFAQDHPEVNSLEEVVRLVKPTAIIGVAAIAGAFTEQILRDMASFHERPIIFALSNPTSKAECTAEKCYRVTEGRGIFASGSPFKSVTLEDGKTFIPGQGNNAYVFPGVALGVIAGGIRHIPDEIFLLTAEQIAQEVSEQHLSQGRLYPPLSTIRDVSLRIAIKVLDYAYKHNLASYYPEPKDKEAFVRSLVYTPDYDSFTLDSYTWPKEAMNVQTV
test_method_notes: ME3 inhibition assay (diaphorase/resazurin coupled fluorescence)
Format: biochemical
conditions: 10 μM compound concentration; read-out: Malic Enzyme 3 % inhibition (10 μM)

Q: If you can, please state the reported inhibition at 10 µM value of O=C(c1c[nH]c2ccccc2c1=O)N1CCN(c2ccc(O)cc2)CC1 .
Result: > 90%

Q: If you can, please state the reported inhibition at 10 µM value of CC(C)Cc1ccc(CCC(=O)N2CCN(c3ccc(O)cn3)CC2)cc1 .
Result: > 90%

Q: If you can, please state the reported inhibition at 10 µM value of O=C(Cc1c[nH]c2cc(F)ccc12)N1CCN(c2ccc(O)cn2)CC1 .
Result: > 90%

Q: If you can, please state the reported inhibition at 10 µM value of O=C(c1ccnc(N2CCCCC2)c1)N1CCN(c2ccc(O)cc2)CC1 .
Result: > 90%

Q: If you can, please state the reported inhibition at 10 µM value of O=C(c1nc2ccccc2[nH]1)N1CCN(c2ccc(O)cn2)CC1 .
Result: > 90%

Q: If you can, please state the reported inhibition at 10 µM value of O=C(/C=C/c1ccc(Cl)cc1)N1CCN(c2ccc(O)cn2)CC1 .
Result: > 90%

Q: If you can, please state the reported inhibition at 10 µM value of O=C(Cc1c[nH]c2c(F)cc(F)cc12)N1CCN(c2ccc(O)cn2)CC1 .
Result: > 90%

Q: If you can, please state the reported inhibition at 10 µM value of COc1cc(CC(=O)N2CCN(c3ccc(O)cc3)CC2)cc(OC)c1OC .
Result: > 90%

Q: If you can, please state the reported inhibition at 10 µM value of Cn1cc(CC(=O)N2CCN(c3ccc(O)cn3)CC2)c2cc(F)ccc21 .
Result: > 90%

Q: If you can, please state the reported inhibition at 10 µM value of CC(C)(CC(=O)N1CCN(c2ccc(O)cn2)CC1)c1ccc(F)cc1 .
Result: > 90%

---

assayed_system: UniProtKB P48163
Sequence (P48163 whole entry): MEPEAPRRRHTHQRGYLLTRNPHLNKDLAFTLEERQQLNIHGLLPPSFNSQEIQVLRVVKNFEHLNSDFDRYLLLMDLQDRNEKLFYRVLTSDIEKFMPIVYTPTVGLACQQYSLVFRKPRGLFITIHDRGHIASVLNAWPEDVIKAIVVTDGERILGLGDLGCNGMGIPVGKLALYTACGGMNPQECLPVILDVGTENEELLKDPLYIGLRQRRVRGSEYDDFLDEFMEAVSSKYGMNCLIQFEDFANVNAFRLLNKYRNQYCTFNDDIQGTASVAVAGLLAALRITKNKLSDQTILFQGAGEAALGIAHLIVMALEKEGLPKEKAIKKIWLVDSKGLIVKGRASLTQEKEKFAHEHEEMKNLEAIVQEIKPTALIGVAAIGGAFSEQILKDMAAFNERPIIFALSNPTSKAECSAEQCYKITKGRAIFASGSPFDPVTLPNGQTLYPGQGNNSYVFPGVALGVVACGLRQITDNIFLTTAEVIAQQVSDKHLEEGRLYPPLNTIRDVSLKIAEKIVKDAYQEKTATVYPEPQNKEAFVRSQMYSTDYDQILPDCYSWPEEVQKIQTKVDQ
test_method_notes: ME1 inhibition assay (diaphorase/resazurin coupled fluorescence)
Format: biochemical
conditions: 10 μM compound concentration; read-out: Malic Enzyme 1 % inhibition (10 μM)
Counter-ions that a name gives are not always drawn.
So I've got a bunch of molecules here, and I need their inhibition at 10 µM values.

Q: If you can, please state the reported inhibition at 10 µM value of O=C(CCC1CC1)N1CCN(c2ccc(O)cn2)CC1 [I.140] .
Result: > 90%

Q: If you can, please state the reported inhibition at 10 µM value of O=C(Cc1c[nH]c2ccccc12)N1CCN(c2ccc(O)cn2)CC1 [I.62] .
Result: 70 to 89%

Q: If you can, please state the reported inhibition at 10 µM value of Cn1cc(C(=O)N2CCN(c3ccc(O)cn3)CC2)c2ccccc21 [I.71] .
Result: > 90%

Q: If you can, please state the reported inhibition at 10 µM value of COc1ccc(C(=CC(=O)N2CCN(c3ccc(O)cn3)CC2)c2ccc(OC)cc2)cc1 [I.84] .
Result: 70 to 89%

Q: If you can, please state the reported inhibition at 10 µM value of O=C(CC12CC3CC(CC(C3)C1)C2)N1CCN(c2ccc(O)cn2)CC1 [I.55] .
Result: > 90%

Q: If you can, please state the reported inhibition at 10 µM value of O=C(CCc1ccc(Cl)c(Cl)c1)N1CCN(c2ccc(O)cn2)CC1 [I.79] .
Result: > 90%

Q: If you can, please state the reported inhibition at 10 µM value of O=C(O)c1cccc(-c2cc(C(=O)N3CCN(c4ccc(O)cc4)CC3)cc(N3CCOCC3)n2)c1 [I.41] .
Result: > 90%

Q: If you can, please state the reported inhibition at 10 µM value of C=CC(=O)NC(CC(=O)N1CCN(c2ccc(O)cn2)CC1)c1ccccc1 (stereo not shown) [I.172] .
Result: 50 to 69%

Q: If you can, please state the reported inhibition at 10 µM value of O=C(c1c[nH]c2ncccc12)N1CCN(c2ccc(O)cn2)CC1 [I.63] .
Result: 70 to 89%

Q: If you can, please state the reported inhibition at 10 µM value of O=C(C(c1ccccc1)c1ccccc1)N1CCN(c2ccc(O)cn2)CC1 [I.48] .
Result: 70 to 89%

Q: If you can, please state the reported inhibition at 10 µM value of O=C(c1c[nH]c2ccc(F)cc12)N1CCN(c2ccc(O)cn2)CC1 [I.155] .
Result: > 90%

Q: If you can, please state the reported inhibition at 10 µM value of O=C(CNC12CC3CC(CC(C3)C1)C2)N1CCN(c2ccc(O)cn2)CC1 [I.83] .
Result: 50 to 69%

Q: If you can, please state the reported inhibition at 10 µM value of O=C(CCc1c2ccccc2cc2ccccc12)N1CCN(c2ccc(O)cc2)CC1 [I.53] .
Result: > 90%

Q: If you can, please state the reported inhibition at 10 µM value of Cc1cccc(Cl)c1C(=O)N1CCN(c2ccc(O)cn2)CC1 [I.80] .
Result: > 90%

Q: If you can, please state the reported inhibition at 10 µM value of O=C(CCc1ccc(F)cc1)N1CCN(c2ccc(O)cn2)CC1 [I.126] .
Result: > 90%

Q: If you can, please state the reported inhibition at 10 µM value of Cc1ccccc1CCC(=O)N1CCN(c2ccc(O)cn2)CC1 [I.107] .
Result: > 90%

Q: If you can, please state the reported inhibition at 10 µM value of O=C(CCn1ccc2ccccc21)N1CCN(c2ccc(O)cn2)CC1 [I.135] .
Result: 70 to 89%

Q: If you can, please state the reported inhibition at 10 µM value of Cc1cc(N2CCN(C(=O)Cc3ccccc3)CC2)ccc1O [I.52] .
Result: > 90%

Q: If you can, please state the reported inhibition at 10 µM value of O=C(C=C(c1ccccc1)c1ccccc1)N1CCN(c2ccc(O)cc2)CC1 [I.40] .
Result: > 90%

Q: If you can, please state the reported inhibition at 10 µM value of O=C(C=C(c1ccccc1)c1ccccc1)N1CCN(c2ccc(O)cn2)CC1 [I.74] .
Result: > 90%

Q: If you can, please state the reported inhibition at 10 µM value of O=C(CC=C(c1ccccc1)c1ccccc1)N1CCN(c2ccc(O)cn2)CC1 [I.94] .
Result: 70 to 89%

Q: If you can, please state the reported inhibition at 10 µM value of O=C(CCCCc1ccccc1)N1CCN(c2ccc(O)cn2)CC1 [I.68, hydrochloride] .
Result: > 90%

Q: If you can, please state the reported inhibition at 10 µM value of O=C(Cc1ccccc1)N1CCN(c2ccc(O)cc2)CC1 [I.1] .
Result: > 90%

Q: If you can, please state the reported inhibition at 10 µM value of O=C(Cc1ccc(F)cc1F)N1CCN(c2ccc(O)cc2)CC1 [I.149] .
Result: > 90%

Q: If you can, please state the reported inhibition at 10 µM value of O=C(c1c[nH]c2ccc(F)cc12)N1CCN(c2ccc(O)cc2)CC1 [I.156] .
Result: > 90%

Q: If you can, please state the reported inhibition at 10 µM value of O=C(Cc1c[nH]c2cc(F)ccc12)N1CCN(c2ccc(O)cn2)CC1 [I.158] .
Result: > 90%

Q: If you can, please state the reported inhibition at 10 µM value of O=C(Cc1c[nH]c2cc(Cl)c(Cl)cc12)N1CCN(c2ccc(O)cn2)CC1 [I.174] .
Result: > 90%

Q: If you can, please state the reported inhibition at 10 µM value of Cc1cccc(C)c1CCC(=O)N1CCN(c2ccc(O)cn2)CC1 [I.147] .
Result: > 90%

Origin of measurements: patent US11225480B2
